TARGET OF ASSAY: Muscarinic acetylcholine receptor M1 (Homo sapiens) (UniProt P11229)
Sequence (P11229 whole entry, looked up): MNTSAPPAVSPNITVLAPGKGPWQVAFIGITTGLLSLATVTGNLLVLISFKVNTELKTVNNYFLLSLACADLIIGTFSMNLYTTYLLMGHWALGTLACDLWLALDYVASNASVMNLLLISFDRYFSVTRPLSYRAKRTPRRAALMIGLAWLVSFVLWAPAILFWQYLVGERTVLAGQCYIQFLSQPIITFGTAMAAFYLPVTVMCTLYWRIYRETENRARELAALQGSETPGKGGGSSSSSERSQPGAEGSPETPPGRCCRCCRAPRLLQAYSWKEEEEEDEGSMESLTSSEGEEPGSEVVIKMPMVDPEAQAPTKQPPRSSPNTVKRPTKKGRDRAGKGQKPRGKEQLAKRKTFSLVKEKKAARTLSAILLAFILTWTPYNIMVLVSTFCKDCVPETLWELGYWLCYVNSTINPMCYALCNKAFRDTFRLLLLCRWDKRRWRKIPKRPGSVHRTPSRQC
ASSAY METHOD TEXT: CHRM1 blockers of acetylcholine calcium response – CHO-K1 cells, Fluo-8 calcium fluorescence, 1536-well, primary screen (AID 588852);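 note: peak over basal fluorescence ratio during 140 s after agonist addition; 0% = ACh EC80 plus DMSO and 100% = DMSO alone without agonist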
CONDITION LABEL: CHO-K1 hM1, Fluo-8 calcium fluorescence, ACh EC80 antagonist; at 3 µM; active compounds read high
Among all 360,000 compounds or so, about 4,600 (1.3%) were called active. This is one part of a sample in which actives are shown more often than they occur.
Below, each entry is listed alongside its reported inhibition.
READOUT: inhibition (%)

- O=C(CSc1nc2nccnc2c(=O)n1Cc1cccs1)Nc1ccccc1F: 9.12
- CC(C)OCCCNc1ncnc2c1[nH]c1ccc(F)cc12: 49.6
- NS(=O)(=O)c1cccc(NC(=O)CC23CC4CC(CC(Br)(C4)C2)C3)c1: 6.38
- COc1ccc(C(=O)OCC(=O)c2ccc(C)c(S(=O)(=O)N3CCOCC3)c2)cc1OC: 42

====

TARGET OF ASSAY: Muscarinic acetylcholine receptor M1 (Homo sapiens)
ASSAY METHOD TEXT: CHRM1 blockers of acetylcholine calcium response – CHO-K1 cells, Fluo-8 calcium fluorescence, 1536-well, primary screen (AID 588852);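 note: peak over basal fluorescence ratio during 140 s after agonist addition; 0% = ACh EC80 plus DMSO and 100% = DMSO alone without agonist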
CONDITION LABEL: CHO-K1 hM1, Fluo-8 calcium fluorescence, ACh EC80 antagonist; at 3 µM; active compounds read high
In all, about 360,000 compounds went through this assay and about 4,600 (1.3%) were called active. The entries come from a sample that favours actives as a whole.
Property: inhibition; scope: individual molecules
READOUT: inhibition (%)

* Cc1ccc(CC(=O)Nc2ccc(S(=O)(=O)N3CCOCC3)cc2)cc1C | -11.9
* COc1ccc(-c2[nH][nH]c(=O)c2NC(=O)c2ccc([N+](=O)[O-])cc2)cc1 | -25
* COc1cccc(CNC(C)C(=O)Nc2ccc(S(=O)(=O)N3CCCC3)cc2)c1 (stereo unspecified) | 39.5
* CCOCCCNS(=O)(=O)Cc1ccccc1 | -12.6
* CCc1ccc(CN(C)C(C)C(=O)Nc2ccc(S(=O)(=O)N3CCCC3)cc2)cc1 (stereo unspecified) | 88.9
* CN(CC(=O)Nc1ccc(S(=O)(=O)N2CCCC2)cc1)Cc1ccc(Cl)c(Cl)c1 | 34.9

====

TARGET OF ASSAY: Muscarinic acetylcholine receptor M1 (Homo sapiens)
ASSAY METHOD TEXT: CHRM1 blockers of acetylcholine calcium response – CHO-K1 cells, Fluo-8 calcium fluorescence, 1536-well, primary screen (AID 588852);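 note: peak over basal fluorescence ratio during 140 s after agonist addition; 0% = ACh EC80 plus DMSO and 100% = DMSO alone without agonist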
CONDITION LABEL: CHO-K1 hM1, Fluo-8 calcium fluorescence, ACh EC80 antagonist; at 3 µM; active compounds read high
About 4,600 (1.3%) of roughly 360,000 compounds were called active. The full list was thinned out, with actives kept by preference.
READOUT: inhibition (%)

- CCc1nc2nc(C)c(NS(=O)(=O)c3ccc4c(c3)CCCC4)c(=O)n2[nH]1: 12.2
- CCC1=Nc2cc(C(=O)NCCCN3CCOCC3)ccc2Sc2ccc(Br)cc21: 1.43
- CCC(=C/c1sc2ccc3ccccc3c2[n+]1C)/C=C1\Sc2ccc3ccccc3c2N1C: -7.73
- O=C1NC(O)CCN1C1CC(O)C(CO)O1 (configuration not stated): 4.13
- COc1ccccc1NC(=O)COC(=O)c1ccccc1SCC(=O)N1CCCC1: -4.49
- COc1ccccc1N1CCN(CC(=O)Nc2ccnn2C2CCCC2)CC1: -12.8
- FC(F)(F)Oc1ccccc1C(c1nnnn1C1CCCCC1)N1CCN(C/C=C/c2ccccc2)CC1 (configuration not stated): -18.7
- O=C(c1ccc(OC2CCN(C/C=C/c3ccc(F)cc3)CC2)cc1)N1CCCCC1: 29.3
- COc1c(C)cc(C(O)c2ncc(-c3cccc(C(F)(F)F)c3)[nH]2)cc1C (configuration not stated): -5.01
- Cc1ccc(CN(C)C[C@@H]2OCc3cnnn3CCCC(=O)N([C@@H](C)CO)C[C@H]2C)cc1: -6.67
- Cc1ccc2c(NC(=O)C3CC3)cccc2n1: -22.4
- CC(=O)Nc1cccc(-c2ccnc3c2CC(C)(C(=O)NCc2ccccc2)O3)c1 (configuration not stated): -11.3
- Cc1ccc2cc(CCNC(=O)c3ccc4c(c3)OCO4)c(=O)[nH]c2c1: -6.75
- Cc1ccc(C(=O)NCC(=O)NCc2cc(=O)n(C)c(=O)n2C)cc1: -9.92
- CC(=O)NC(c1cccs1)c1cc(Br)c2cccnc2c1O (configuration not stated): -13.2
- COc1ccc(C(c2nnnn2C2CCCCC2)N2CCN(c3ccccc3F)CC2)cc1 (configuration not stated): -2.28
- S=C(NCCCc1cnc[nH]1)NCCCN(Cc1ccc(Cl)c(Cl)c1)c1ccc(Br)cn1: 0.91
- COc1ccc(C2CC(c3cccs3)=NN2C(=O)CSc2nncs2)cc1OC (configuration not stated): -3.74
- COc1ccccc1CNC(=O)CCCn1c(=O)c2ccccc2n(CC(=O)NC2CCCC2)c1=O: -13.2
- O=C(C1CCC1)N1CCc2cc(S(=O)(=O)NCc3cccnc3)ccc21: -15.2
- COc1cc2ccccc2cc1C(=O)Nc1ccc(S(=O)(=O)Nc2cc(C)on2)cc1: 103
- Cc1nnc(SC(C)C(=O)c2c[nH]c3ccccc23)n1C1CC1 (configuration not stated): 2.35
- CCCC1=Nc2cc(C(=O)NCc3ccco3)ccc2Sc2ccccc21: 13.6
- COc1ccc(NC(=O)N2CCC(Cc3ccccc3)CC2)cc1: -2.81
- COc1ccc(C(C#N)=C2C=CC(=NO)c3ccccc32)cc1: 22
- COc1ccc(S(=O)(=O)Nc2cc(C)on2)cc1NC(C)=O: -12.3
- Cc1onc(-c2ccccc2Cl)c1C(=O)OCc1nnc(-c2ccccc2)o1: 1.39
- COc1ccc(CNS(=O)(=O)c2ccc(NC(=O)N3CCCCC3)cc2)cc1: 33.3
- Cc1ccc(C(=O)NCC(=O)OCc2nnc(-c3ccccc3)o2)cc1: -11.3
- O=S1(=O)C[C@@H](N2CCN(CCO)CC2)[C@H](COCc2ccccc2)N1: 8.79
- O=C(NCc1ccccc1Cl)C1CCN(c2ncnc3c2nc2n3CCCCC2)CC1: -5.23
- C[C@@H]1CN([C@@H](C)CO)C(=O)c2cc(Br)cnc2O[C@H]1CN(C)Cc1ccc(-c2ccccc2)cc1: -3.44
- COc1ccc(-c2cnc3c(c2)C(=O)N([C@H](C)CO)C[C@@H](C)[C@H](CN(C)Cc2ccccc2)O3)cc1: 79.4
- CCN1/C(=C\c2ccc3ccccc3[n+]2CC)Sc2cc(C)ccc21: 59
- O=C(Nc1nnc([C@H]2C[C@H](O)[C@@H](CO)O2)s1)c1cccc(Cl)c1: -7.54
- N#C/C(=C/c1ccc(N2CCCCC2)o1)C(=O)NCCc1c[nH]c2ccccc12: 44.3
- CCCC(=O)N1CCC1(C)C(=O)NCc1ccc(SC)cc1 (configuration not stated): -8.63
